Reference source for all entries: patent US20230374147A1

- Assay target: T1, Cyno TACI-His (Sino Biological, 90976-C08H) (cynomolgus macaque, UniProt G7PTR7 1-165)
- T1 construct: Bought protein; also called cynomolgous macaque TACI; CyTACI
- T1 sequence: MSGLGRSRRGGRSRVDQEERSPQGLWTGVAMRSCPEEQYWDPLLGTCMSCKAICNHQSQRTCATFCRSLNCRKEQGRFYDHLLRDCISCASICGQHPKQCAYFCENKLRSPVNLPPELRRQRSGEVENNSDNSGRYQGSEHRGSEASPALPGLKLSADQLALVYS
- Assay protocol: ELISA, coated Cyno TACI-His
pEC50: −log10 of the molar value.
pEC50 overview

Binder: 1C8-403 hIgG1 (antibody, V domains shown, also called [91]; hu1C8-403) VH: QVQLVQSGAEVKKPGASVKVSCKASGYTFTNYVMHWVKQKPGQGLEWMGYILPYNDGTKYAQKFQGKVTMTSDKSTSTVYMELSSLTSEDTAVYYCARYDWEGSFDYWGQGTLVTVSS VL: DIQMTQSPSSLSASVGDRVTITCRASSDISNYLNWYQQKPGKAPKLLMCYTSRLHSGVPSRFSGSGSGTDFTLTISSLEQEDFATYYCQQGNTFPPTFGGGTKVEIKR
pEC50: 10.47

Binder: 1C8-507 hIgG1 (antibody, V domains shown, also called [92]; hu1C8-507) VH: QVQLVQSGAEVKKPGASVKVSCKASGYTFRNYVMHWVKQKPGQGLEWMGWILPYNDGTKYAQKFQGKVTMTSDKSTSTVYMELSSLTSEDTAVYYCARYDYEGSFDYWGQGTLVTVSS VL: DIQMTQSPSSLSASVGDRVTITCRASQDISNYLNWYQQKPGKAPKLLMRYTSLLHSGVPSRFSGSGSGTDFTLTISSLEQEDFATYYCQQGNTFPPTFGGGTKVEIKR
pEC50: 10.96

Binder: 1C8-6A3 hIgG1 (antibody, V domains shown, also called [94]; hu1C8) VH: QVQLVQSGAEVKKPGASVKVSCKASGYTFTNYVMHWVKQKPGQGLEWMGYILPYNDGTKYAQKFQGKVTMTSDKSTSTVYMELSSLTSEDTAVYYCARYDYEGSFDYWGQGTLVTVSS VL: DIQMTQSPSSLSASVGDRVTITCRASQDISNYLNWYQQKPGKAPKLLMCYTSRLHSGVPSRFSGSGSGTDFTLTISSLEQEDFATYYCQQGNTFPPTFGGGTKVEIKR
pEC50: 10.55

Binder: 1C8-610 hIgG1 (antibody, V domains shown, also called [93]; hu1C8-610) VH: QVQLVQSGAEVKKPGASVKVSCKASGYTFTNYVMFWVKQKPGQGLEWMGYITPYNDGTKYAQKFQGKVTMTSDKSTSTVYMELSSLTSEDTAVYYCARYDYEGSFDYWGQGTLVTVSS VL: DIQMTQSPSSLSASVGDRVTITCRASQDISNYLNWYQQKPGKAPKLLMRYTSRFHSGVPSRFSGSGSGTDFTLTISSLEQEDFATYYCQQGNTFPPTSGGGTKVEIKR
pEC50: 11.15
